Every entry's value here was drawn from patent US12122761B2.

Consider the following compounds and their measured Emax readings.
Target: Cloned human M1 receptor (CHRM1) stably expressed in HEK293 cells (Homo sapiens, UniProt P11229)
Construct: expressed in transfected cells; host or cells: HEK293
Sequence (P11229 1-460): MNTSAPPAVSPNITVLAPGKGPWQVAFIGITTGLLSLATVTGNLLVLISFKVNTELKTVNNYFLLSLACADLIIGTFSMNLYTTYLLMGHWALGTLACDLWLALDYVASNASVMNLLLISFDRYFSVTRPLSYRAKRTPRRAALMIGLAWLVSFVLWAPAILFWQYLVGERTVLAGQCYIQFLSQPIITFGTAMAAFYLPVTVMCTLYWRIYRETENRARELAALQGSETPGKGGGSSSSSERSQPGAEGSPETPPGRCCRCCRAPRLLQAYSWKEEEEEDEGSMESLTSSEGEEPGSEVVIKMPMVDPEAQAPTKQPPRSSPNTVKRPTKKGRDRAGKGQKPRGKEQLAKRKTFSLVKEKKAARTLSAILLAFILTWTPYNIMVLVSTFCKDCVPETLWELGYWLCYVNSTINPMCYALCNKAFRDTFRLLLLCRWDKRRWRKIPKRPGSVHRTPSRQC
Assay: CHRM1 Ca++ Flux Assay (agonist mode, FDSS 7000EX)
Type: cell-based
Details: HEK293, Percent Activity, read-out: M1 FDSS PA
Assay Metric: Emax (%)

> print(dat)
                                    compound  endpoint.result
 1  COc1ccc(Cl)cc1C1CCN([C@@H]2CCC3(C2)CN(c2ccnnc2)C3)CC1 [Example 5P]               60
 2  O=C(C1COC1)N1CC2(CC[C@H](N3CCC(c4ccccc4OC(F)(F)F)CC3)C2)C1 (single isomer, unassigned) [Example 8G]                0
 3  O=C(C1COC1)N1CC2(CC[C@@H](N3CCC(c4ccc(F)cc4OC(F)F)CC3)C2)C1 [Example 6B]               90
 4  CC(C)(O)COc1ccccc1C1CCN([C@@H]2CCC3(C2)CN(C(=O)C2COC2)C3)CC1 [Example 7L]               85
 5  c1ccc(C2CCN([C@@H]3CCC4(C3)CN(c3cncnc3)C4)CC2)c(OC2CC3(COC3)C2)c1 [Example 1O]                0
 6  O=C(C1COC1)N1CC2(CC[C@@H](N3CCC(c4ccccc4OC[C@@H]4CCOC4)CC3)C2)C1 [Example 7E]              101
 7  COc1ccccc1C1CCN([C@@H]2CCC3(C2)CN(c2nccnc2C)C3)CC1 [Example 5J]               60
 8  CC1(COc2ccccc2C2CCN([C@@H]3CCC4(C3)CN(c3nnco3)C4)CC2)CCOCC1 [Example 2E]               78
 9  COc1ccccc1C1CCN([C@@H]2CCC3(C2)CN(c2nccnc2C(F)(F)F)C3)CC1 [Example 5I]               55
10  Cc1coc(N2CC3(CC[C@@H](N4CCC(c5ccccc5OCC(C)(C)O)CC4)C3)C2)n1 [Example 3O]                0
11  CC(C)Oc1ccccc1C1CCN([C@@H]2CCC3(C2)CN(C(=O)C2COC2)C3)CC1 [Example 7K]               72
12  COc1ccccc1C1CCN([C@@H]2CCC3(C2)CN(c2cncnc2)C3)CC1 [Example 5A]               64
13  COCCOc1ccccc1C1CCN([C@@H]2CCC3(C2)CN(c2nncs2)C3)CC1 [Example 3F]               68
14  O=C(C1COC1)N1CC2(CC[C@@H](N3CCC(c4ccccc4Oc4nccs4)CC3)C2)C1 [Example 7C]               87
15  COCCOc1ccccc1C1CCN([C@@H]2CCC3(C2)CN(c2ccnnc2)C3)CC1 [Example 5Z]               21
16  Cc1ccc(N2CC3(CC[C@@H](N4CCC(c5ccccc5O[C@@H]5CCOC5)CC4)C3)C2)cn1 [Example 5L]                0
